meta.source: patent US20020051974

- System: VEGF (vascular endothelial growth factor), P15692-4
- Sequence: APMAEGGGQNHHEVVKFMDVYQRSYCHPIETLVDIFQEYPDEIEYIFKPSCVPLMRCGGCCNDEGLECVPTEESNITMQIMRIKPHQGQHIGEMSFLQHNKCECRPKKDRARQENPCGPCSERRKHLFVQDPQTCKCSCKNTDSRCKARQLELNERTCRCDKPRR
- assay_overview: filter
- conditions_used: 50% of RNA bound; PBS, 1 mM MgCl2; sequence contains N

- sequence_data: "GGGAAUGGAUCCACAUCUACGAAUUCCGCGCGCGCUAACCUUGNGGNGNAAGUAUGUUCACUGCAGACUUGACGAAGCUU [V13]"
  EC50, nM: 8.32

----------
- Tested on: VEGF (vascular endothelial growth factor), P15692-4
- Sequence: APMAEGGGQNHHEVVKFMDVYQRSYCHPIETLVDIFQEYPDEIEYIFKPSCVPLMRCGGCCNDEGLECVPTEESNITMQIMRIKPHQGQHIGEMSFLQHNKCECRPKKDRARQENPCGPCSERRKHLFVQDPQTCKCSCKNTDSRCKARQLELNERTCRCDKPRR
- assay_overview: filter
- conditions_used: 50% of RNA bound; PBS, 1 mM MgCl2; text gives 8.5
pEC50: −log10 of the molar value.

- sequence_data: "GGGAAUGGAUCCACAUCUACGAAUUCUGUAAGAUUGGUCUCCAGACUGCCGAGCUGUUCACUGCAGACUUGACGAAGCUU [V18]"
  study_target: "VEGF (vascular endothelial growth factor), P15692-4"
  pEC50: 8.07

----------
- Tested on: VEGF (vascular endothelial growth factor), P15692-4
- Sequence: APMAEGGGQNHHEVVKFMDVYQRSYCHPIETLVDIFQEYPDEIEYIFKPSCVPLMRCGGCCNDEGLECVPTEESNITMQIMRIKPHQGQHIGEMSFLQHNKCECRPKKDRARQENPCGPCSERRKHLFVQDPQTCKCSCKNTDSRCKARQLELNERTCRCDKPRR
- assay_overview: filter
- conditions_used: 50% of RNA bound; PBS, 1 mM MgCl2, room temperature
pEC50: −log10 of the molar value.
pEC50 values by entry

- sequence_data: "GGGAAUGGAUCCACAUCUACGAAUUCGGAUAUUCCGCGCACGUCAUUUCAUCAGCUUUCACUGCAGACUUGACGAAGCUU [V19]"
  pEC50: 8.12
- sequence_data: "GGGAGCUCAGAAUAAACGCUCAAACGGUUCUGUGUGUGGACUAGCCGCGGCCGUUCGACAUGAGGCCCGGAUCCGGC [VEGF126 (RNA transcript of printed DNA)]"
  pEC50: 7.70
- sequence_data: "GGGAAUGGAUCCACAUCUACGAAUUCAGGUGGAAAGCAAGUUCCGCGCACGUUAAUUUCACUGCAGACUUGACGAAGCUU [V08]"
  pEC50: 7.84
- sequence_data: "GGGAAUGGAUCCACAUCUACGAAUUCUUUGAAGAGGGUCAAUCCGCGCACGUUACGUUCACUGCAGACUUGACGAAGCUU [V03]"
  pEC50: 7.49
- sequence_data: "GGGAAUGGAUCCACAUCUACGAAUUCGGGAACAGCUCUAUUCCGCGCACGUUUGAGUUCACUGCAGACUUGACGAAGCUU [V04]"
  pEC50: 8.34
- sequence_data: "GGGAAUGGAUCCACAUCUACGAAUUCCGCGCACGUAGGUUGGGUGUAACUGCGUUGUUCACUGCAGACUUGACGAAGCUU [V05]"
  pEC50: 7.82
- sequence_data: "GGGAAUGGAUCCACAUCUACGAAUUCGAUGGCGUUAGUGGGAAUGAUUCUGCCGAGUUCACUGCAGACUUGACGAAGCUU [V07]"
  pEC50: 7.76
- sequence_data: "GGGAAUGGAUCCACAUCUACGAAUUCCGCGCACGUCACGGGCCGACACGAAUAUGGUUCACUGCAGACUUGACGAAGCUU [V10]"
  pEC50: 7.50
- sequence_data: "GGGAGCUCAGAAUAAACGCUCAAGACCCAUCGUCAACGGUUGAGUCUGUCCCGUUCGACAUGAGGCCCGGAUCCGGC [VEGF40 (RNA transcript of printed DNA)]"
  pEC50: 8.38
- sequence_data: "GGGAAUGGAUCCACAUCUACGAAUUCCGUUCUGCCGAGACUGCACGUGUGCUUGAAUUCACUGCAGACUUGACGAAGCUU [V09]"
  pEC50: 7.62
- sequence_data: "GGGAAUGGAUCCACAUCUACGAAUUCAGGCAGCGUAGAGGGUUCACUCUGCCGAGUUUCACUGCAGACUUGACGAAGCUU [V01]"
  pEC50: 7.72
- sequence_data: "GGGAAUGGAUCCACAUCUACGAAUUCGAGGGUCCGUCUGCCGAGUCUUGUAACACCUUCACUGCAGACUUGACGAAGCUU [V02]"
  pEC50: 7.67
